Test system: HIV-1 LAI
method.notes: microbe, parasite or virus in culture
settings: Compound 1 + named drug, EC50 ratio 1:2.5 (Compound 1:comparator); 95% confidence interval in parentheses
measure: Combination Indices at % HIV Inhibition (Confidence Interval) 90%

The cases that follow already have their Combination Indices at % HIV Inhibition (Confidence Interval) 90% on record.
>  <compound.string>
Nc1nc(NC2CC2)c2ncn([C@H]3C=C[C@@H](CO)C3)c2n1

>  <observed.value>
0.48 (0.27, 0.68)

$$$$
>  <compound.string>
CC(C)Nc1cccnc1N1CCN(C(=O)c2cc3cc(NS(C)(=O)=O)ccc3[nH]2)CC1

>  <observed.value>
0.57 (0.26, 0.89)

$$$$
>  <compound.string>
CC(C)(C)NC(=O)[C@@H]1CN(Cc2cccnc2)CCN1C[C@@H](O)C[C@@H](Cc1ccccc1)C(=O)N[C@H]1c2ccccc2C[C@H]1O

>  <observed.value>
1.96 (0.29, 3.64)

$$$$

Now, please, on to the next molecule.
IN: Recorded Combination Indices at % HIV Inhibition (Confidence Interval) 90% for "Cc1ccnc2c1NC(=O)c1cccnc1N2C1CC1" , please?
OUT: 0.92 (0.35, 1.49)

----------
Tested on: HIV-1 LAI
method.notes: microbe, parasite or virus in culture
settings: Compound 1 + named drug, EC50 ratio 1:2.5 (Compound 1:comparator); 95% confidence interval in parentheses
measure: Combination Indices at % HIV Inhibition (Confidence Interval) 90%

>  <compound.string>
O=c1[nH]cnc2c1ncn2[C@H]1CC[C@@H](CO)O1

>  <observed.value>
0.35 (0.23, 0.48)

$$$$

Now turn to the next compound.
IN: Entry "Cc1c(O)cccc1C(=O)N[C@@H](CSc1ccccc1)[C@H](O)CN1C[C@H]2CCCC[C@H]2C[C@H]1C(=O)NC(C)(C)C" : reported Combination Indices at % HIV Inhibition (Confidence Interval) 90% = ?
OUT: 1.61 (0.84, 2.37)

----------
System: HIV-1 LAI
method.notes: microbe, parasite or virus in culture
settings: Compound 1 + named drug, EC50 ratio 1:1 (Compound 1:comparator); 95% confidence interval in parentheses
We begin with a simple list: items and their reported Combination Indices at % HIV Inhibition (Confidence Interval) 50%.

In the examples that follow, each entry is paired with its recorded Combination Indices at % HIV Inhibition (Confidence Interval) 50%.
>  <compound.string>
CON(Cc1ccc(F)cc1)C(=O)C=C(O)C(=O)O

>  <observed.value>
0.48 (0.39, 0.58)

$$$$
>  <compound.string>
Nc1nc(=O)n([C@@H]2CS[C@H](CO)O2)cc1F

>  <observed.value>
0.42 (0.35, 0.50)

$$$$
>  <compound.string>
Nc1nc(NC2CC2)c2ncn([C@H]3C=C[C@@H](CO)C3)c2n1

>  <observed.value>
0.69 (0.49, 0.89)

$$$$
>  <compound.string>
Cc1c(O)cccc1C(=O)N[C@@H](CSc1ccccc1)[C@H](O)CN1C[C@H]2CCCC[C@H]2C[C@H]1C(=O)NC(C)(C)C

>  <observed.value>
0.39 (0.34, 0.44)

$$$$
>  <compound.string>
Cc1cccc(C)c1OCC(=O)N[C@@H](Cc1ccccc1)[C@@H](O)C[C@H](Cc1ccccc1)NC(=O)[C@H](C(C)C)N1CCCNC1=O

>  <observed.value>
0.47 (0.38, 0.56)

$$$$

IN: Entry "O=c1[nH]cnc2c1ncn2[C@H]1CC[C@@H](CO)O1" , system HIV-1 LAI: what Combination Indices at % HIV Inhibition (Confidence Interval) 50% was measured?
OUT: 0.31 (0.29, 0.32)

IN: I'm curious: which Combination Indices at % HIV Inhibition (Confidence Interval) 50% was measured for "CC(C)c1nc(CN(C)C(=O)N[C@H](C(=O)N[C@@H](Cc2ccccc2)C[C@H](O)[C@H](Cc2ccccc2)NC(=O)OCc2cncs2)C(C)C)cs1" tested on HIV-1 LAI?
OUT: 0.60 (0.49, 0.72)
